study-system: LTA4-h (Homo sapiens)
assay-info: Peptidase (aminopeptidase) assay
Type: biochemical
details: at 3 uM; read-out: Peptidase % inhibition
assay-readout: inhibition at 3 µM

Some entries whose results are on file:
COC(=O)c1ccc(CN(CC2CCN(C(=O)OC(C)(C)C)C2)c2ccc(Oc3ccc(Cl)cc3)cc2)cc1 (centres unmarked)
56%
CC(C)(C)OC(=O)CN(CC1CCN(C(=O)OC(C)(C)C)C1)c1ccc(Oc2ccc(Cl)cc2)cc1 (centres unmarked)
7%
COC(=O)c1cccc(CN(CC2CCN(C(=O)OC(C)(C)C)C2)c2ccc(Oc3ccc(Cl)cc3)cc2)c1 (centres unmarked)
22%
COC(=O)c1ccc(CN2CCC(CN(Cc3ccc(F)cc3)c3ccc(Oc4ccc(Cl)cc4)cc3)C2)cc1 (centres unmarked)
59%

QUERY: Looking for the measured inhibition at 3 µM of COC(=O)c1ccc(CN2CCC(CN(Cc3ccccc3)c3ccc(Oc4ccc(Cl)cc4)cc3)C2)cc1 (centres unmarked) , can you help?
RESULT: 40%

QUERY: What inhibition at 3 µM value was documented for this molecule, CC(C)(C)OC(=O)N1CCC(CN(Cc2ccc(F)cc2)c2ccc(Oc3ccc(Cl)cc3)cc2)C1 (centres unmarked) ?
RESULT: 47%

QUERY: What value of measured inhibition at 3 µM is listed for CC(C)(C)OC(=O)N1CCC(CN(Cc2ccccc2)c2ccc(Oc3ccc(Cl)cc3)cc2)C1 (centres unmarked) ?
RESULT: 0%

QUERY: Which inhibition at 3 µM reading was recorded for the molecule COC(=O)c1ccc(CN(CC2CN(C(=O)OC(C)(C)C)C2)c2ccc(Oc3ccc(Cl)cc3)cc2)cc1 ?
RESULT: 42%

====

study-system: LTA4-h hydrolase (Homo sapiens, UniProt P09960)
Construct: endogenous in cells
Sequence (P09960 1-611): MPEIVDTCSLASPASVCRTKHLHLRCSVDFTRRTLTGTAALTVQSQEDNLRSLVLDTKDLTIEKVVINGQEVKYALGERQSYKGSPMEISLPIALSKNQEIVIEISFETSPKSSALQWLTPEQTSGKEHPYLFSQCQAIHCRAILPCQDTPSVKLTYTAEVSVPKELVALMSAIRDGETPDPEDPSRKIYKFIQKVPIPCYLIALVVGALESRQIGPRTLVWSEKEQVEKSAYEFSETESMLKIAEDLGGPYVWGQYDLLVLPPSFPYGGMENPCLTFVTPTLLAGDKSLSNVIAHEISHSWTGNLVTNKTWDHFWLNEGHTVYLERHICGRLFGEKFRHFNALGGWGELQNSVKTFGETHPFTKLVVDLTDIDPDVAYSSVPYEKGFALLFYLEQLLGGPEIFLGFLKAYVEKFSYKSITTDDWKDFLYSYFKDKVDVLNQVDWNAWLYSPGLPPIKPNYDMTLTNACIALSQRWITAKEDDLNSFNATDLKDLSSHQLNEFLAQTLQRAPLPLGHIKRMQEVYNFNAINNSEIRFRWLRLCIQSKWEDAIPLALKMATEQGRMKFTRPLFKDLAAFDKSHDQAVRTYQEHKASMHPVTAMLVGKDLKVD
assay-info: Whole blood assay (WBA)
assay-readout: IC50 (nM)
Enter your answer as a number in nM; do not include the unit.

Example results:
O=C(O)c1ccc(CN2CC(Nc3ccc(Oc4ccc(Cl)cc4)cc3)C2)cc1
57
CC(C)(C)OC(=O)N1CCC(CN(Cc2ccc(S(N)(=O)=O)cc2)c2ccc(Oc3ccc(Cl)cc3)cc2)C1 (stereo not shown)
2800
O=C(O)c1ccc(CN2CCC(CN(Cc3ccccc3)c3ccc(Oc4ccc(Cl)cc4)cc3)C2)cc1 (stereo not shown)
520

Continue with the next molecule.
QUERY: Given the entry Clc1ccc(Oc2ccc(NCC3CCCCN3)cc2)cc1 (stereo not shown) , report its measured IC50.
RESULT: 880
